Reported Average MM1.S IC50 [pM], cell kill values follow for various binders
Target: T1, human SEMA4A expressed on cells (UniProt ID Q9H3S1, isoform 1) (human, UniProt Q9H3S1 33-761)
T1 sequence: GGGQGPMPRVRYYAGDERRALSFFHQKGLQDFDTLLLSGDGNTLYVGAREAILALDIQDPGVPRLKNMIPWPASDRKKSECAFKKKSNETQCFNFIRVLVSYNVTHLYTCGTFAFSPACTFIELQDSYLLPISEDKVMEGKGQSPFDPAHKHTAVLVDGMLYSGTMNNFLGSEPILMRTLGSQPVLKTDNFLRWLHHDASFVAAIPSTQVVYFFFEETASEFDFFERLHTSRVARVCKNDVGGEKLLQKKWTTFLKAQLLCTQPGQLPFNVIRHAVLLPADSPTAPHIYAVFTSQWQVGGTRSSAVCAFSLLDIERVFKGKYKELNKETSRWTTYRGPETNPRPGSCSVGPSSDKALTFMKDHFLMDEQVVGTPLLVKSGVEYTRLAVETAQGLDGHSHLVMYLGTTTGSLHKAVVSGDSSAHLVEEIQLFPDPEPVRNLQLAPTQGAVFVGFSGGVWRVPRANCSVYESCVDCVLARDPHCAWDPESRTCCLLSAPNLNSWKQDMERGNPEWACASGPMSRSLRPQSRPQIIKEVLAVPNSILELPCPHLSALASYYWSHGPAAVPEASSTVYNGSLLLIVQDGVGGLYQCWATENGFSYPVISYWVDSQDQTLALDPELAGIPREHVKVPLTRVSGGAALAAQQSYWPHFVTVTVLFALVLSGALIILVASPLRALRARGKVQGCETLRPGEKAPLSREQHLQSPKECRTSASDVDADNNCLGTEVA
Assay: cell-based or functional assay
Respond numerically; units are pM and should not be typed.

QUERY: Give the reported Average MM1.S IC50 [pM], cell kill for this binder. 5Hg2-5Lg2 human Alya IgG1 conjugated to McMMAF (antibody, V domains shown, McMMAF on the engineered cysteines 239iCys and S442C (EU numbering) of the heavy constant region, Antibody-drug conjugate; human IgG1 Alya constant; also called 5Hg2/5Lg2-McMMAF) VH: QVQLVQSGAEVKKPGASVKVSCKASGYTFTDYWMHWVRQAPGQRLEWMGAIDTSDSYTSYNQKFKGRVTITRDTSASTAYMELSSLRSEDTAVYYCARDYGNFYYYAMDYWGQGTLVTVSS VL: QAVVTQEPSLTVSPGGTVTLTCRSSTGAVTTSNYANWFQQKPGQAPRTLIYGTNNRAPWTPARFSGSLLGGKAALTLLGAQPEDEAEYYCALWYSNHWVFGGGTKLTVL
RESULT: 10.7

QUERY: Give the reported Average MM1.S IC50 [pM], cell kill for this binder. 5Hg1-5Lg1 human Alya IgG1 conjugated to McMMAF (antibody, V domains shown, McMMAF on the engineered cysteines 239iCys and S442C (EU numbering) of the heavy constant region, Antibody-drug conjugate; human IgG1 Alya constant; also called 5Hg1/5Lg1-McMMAF) VH: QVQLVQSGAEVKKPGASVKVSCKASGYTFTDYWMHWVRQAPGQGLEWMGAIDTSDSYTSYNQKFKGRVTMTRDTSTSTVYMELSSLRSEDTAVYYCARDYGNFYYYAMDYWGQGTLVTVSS VL: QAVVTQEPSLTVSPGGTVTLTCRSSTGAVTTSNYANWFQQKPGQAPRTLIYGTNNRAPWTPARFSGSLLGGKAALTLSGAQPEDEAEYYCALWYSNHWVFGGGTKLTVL
RESULT: 35.8

QUERY: Give the reported Average MM1.S IC50 [pM], cell kill for this binder. mouse 5E3 as human Alya IgG1 conjugated to McMMAF (antibody, V domains shown, McMMAF on the engineered cysteines 239iCys and S442C (EU numbering) of the heavy constant region, Antibody-drug conjugate; human IgG1 Alya constant, drug-to-antibody ratio of four; also called Mouse 5E3-McMMAF) VH: QVQLQQPGAELVMPGASVKMSCKASGYTFTDYWMHWVKQRPGQGLEWIGAIDTSDSYTSYNQKFKGKATLTVDESSSTAYMQLSSLTSEDSAVYYCARDYGNFYYYAMDYWGQGTSVTVSS VL: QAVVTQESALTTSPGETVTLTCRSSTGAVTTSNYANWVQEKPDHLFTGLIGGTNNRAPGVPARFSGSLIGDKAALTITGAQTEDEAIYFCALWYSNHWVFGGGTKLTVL
RESULT: 5.95
